System: Lolium perenne (LOLPE)
PROTOCOL_TEXT: Glasshouse assay for herbicidal activity (pre- and post-emergence), percentage phytotoxicity
Format: in vivo
TEST_SETTINGS: Lolium perenne, post-emergence, 360 h, POST-emergence, rate 250 g/ha, visual score 15 DAA (100%=total damage, 0%=no damage); read-out: Post-emergence herbicidal activity (percentage phytotoxicity) LOLPE POST
VALUE_TYPE: pest or weed control at 250 g/ha (%)

COMPOUND: Cc1cc(-c2ncc(C#N)cn2)cc(C)c1C1C(=O)CC(CC(=O)N2CCOCC2)C1=O (stereo not shown) [Compound B288]
TEST_SYSTEM: Lolium perenne (LOLPE)
REPORTED_VALUE: 90

COMPOUND: C/C=C/CNC(=O)CC1CC(=O)C(c2c(C)cc(-c3ncc(F)cc3F)cc2C)C1=O (stereo not shown) [Compound B291]
TEST_SYSTEM: Lolium perenne (LOLPE)
REPORTED_VALUE: 90

COMPOUND: C=CC(C)NC(=O)CC1CC(=O)C(c2c(C)cc(Br)cc2C)C1=O (stereo not shown) [Compound B301]
TEST_SYSTEM: Lolium perenne (LOLPE)
REPORTED_VALUE: 50

COMPOUND: CCNC(=O)CC1CC(=O)C(c2c(C)cc(-c3ncc(C#N)cn3)cc2C)C1=O (stereo not shown) [Compound B286]
TEST_SYSTEM: Lolium perenne (LOLPE)
REPORTED_VALUE: 100
